- condition context: 298.15 K; 101.33 kPa; Liquid
assay metric: mass density (kg/m3)

{"compound string": "CCC(=O)O", "mass density, kg/m3": 988.33}
{"compound string": "CC(=O)O", "mass density, kg/m3": 1043.95}
{"compound string": "O=CO", "mass density, kg/m3": 1211.29}
{"compound string": "CCCC(=O)O", "mass density, kg/m3": 953.17}
